- Test system: UO-31
- ASSAY: NCI tumour cell line growth inhibition, 48 h
Activity calls are given as the source filed them. No stated cut-off is given here; in the data, active = GI50 up to about 1.1 µM and inactive = higher.
Lab note: assign the record to one of active, inactive

Take a look at these entries with their results.
>>> cat("Clc1ccccc1NN(Cc1ccccn1)c1ccccc1Cl")
"inactive"
>>> cat("CC(=O)Oc1ccc2cc(Oc3cc(Cl)c(Cl)cc3Cl)c(=O)oc2c1")
"inactive"
>>> cat("CC(C)(C)OC(=O)Cn1ncn(NC(=O)Cc2ccccc2)c1=S")
"inactive"
>>> cat("CC[N+](C)(CC)CC(C)(C)C(=O)/C=C/c1ccc(/C=C/C(=O)C(C)(C)C[N+](C)(CC)CC)cc1")
"inactive"
>>> cat("O=C(O)Cc1cccc2c(=O)c3ccccc3oc12")
"inactive"
>>> cat("O=C(/C=C/C(=O)N1CCCC1)N1CCCC1")
"inactive"
>>> cat("Cc1ccc2oc(=O)c3c(O)c4cccc(OC5OC(C)C6O[C@@H](c7ccccc7)OC6C5OC5OC(C)C(O)C(O)C5O)c4c4oc(=O)c1c2c34 (some centres undefined)")
"inactive"
>>> cat("c1ccc2c(-c3csc(-c4c[nH]c5ccccc45)n3)c[nH]c2c1")
"inactive"

Exercise: Could you check what this test reported for `CNC(=S)NC(=S)N(C)C` ?
Solution: inactive

Exercise: Could you check what this test reported for C[C@@H](CC(=O)O)OC1OC(COC(=O)C(C)(C)C)C(OC(=O)C(C)(C)C)C(OC(=O)C(C)(C)C)C1OC(=O)C(C)(C)C (some centres undefined) ?
Solution: inactive

Exercise: Could you check what this test reported for `CCCCN(CCCC)c1c([N+](=O)[O-])c(=O)nc2ccccn12` ?
Solution: inactive

Exercise: Could you check what this test reported for `CCCCCCCCCCCCCP(=O)(O)O` ?
Solution: inactive

Exercise: Could you check what this test reported for `CCN(CC)C(=S)SCC(=O)Nc1nc2c(s1)CCCC2` ?
Solution: inactive

The measurements presented in this section are drawn from ChEMBL document CHEMBL1201862.
